- SUBJECT OF TEST: T1, AMHR-II/Fc fusion protein (human, UniProt Q16671 18-149, limits assumed)
- T1 construct: also called AMHR-II recombinant receptor expressed in the form of fusion protein with a region Fc; recombinant target; not shown: Fc region
- TEST: phage-scFv ELISA on AMHRII-Fc; mean of at least four values, standard deviation in parentheses
OBSERVED PROPERTY: Ratio AB invention/chimeric 12G4

[[record]]
binder = "4E_153 (mutated huLFB112 phage-scFv clone) (scFv, V domains shown, scFv on M13 phage, tested as culture supernatant; not shown: The 15-residue scFv peptide linker (positions 116-130 of the scFv numbering) and the M13 phage display partner) VH: QVQLVQSGAEVKKPGASVKVSCKASGYTFTSYHIHWVRQAPGQRLEWMGWIYPGDNSTKYSQKFQGRVTNTRDTSASTAYMELSSLRSEDTAVYYCTRGDRSAYWGQGTLVTVSS VL: DIQMTQSPSTLSASVGDRVTITCRASSSVRYIAWYQQKPGKAPKLLIYSTSSLESGVPSRFSGSGSGTEFTLTISSLQPDDFATYYCLQWSSYPWTFGGGTKVEIK"
observed_property = "Ratio AB invention/chimeric 12G4"
measured_number = 1

[[record]]
binder = "3C_23 (mutated huLFB112 phage-scFv clone) (scFv, part only; not given: scFv linker and phage partner, V domains shown, not shown: another chain or arm of the molecule; large carriers; small tags and cut ends) VH: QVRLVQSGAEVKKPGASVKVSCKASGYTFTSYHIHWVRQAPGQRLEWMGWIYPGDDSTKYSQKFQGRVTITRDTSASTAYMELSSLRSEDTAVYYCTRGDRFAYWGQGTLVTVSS VL: DIQMTQSPSTLSASVGDRVTITCRASSSVRYIAWYQQKPGKAPKLLTYPTSSLESGVPSRFSGSGSGTEFTLTISSLQPDDFATYYCLQWSSYPWTFGGGTKVEIK"
observed_property = "Ratio AB invention/chimeric 12G4"
measured_number = 1.2

[[record]]
binder = "5B_18 (mutated huLFB112 phage-scFv clone) (scFv, V domains shown, scFv on M13 phage, tested as culture supernatant; Q3E: TAG codon suppressed, translated to E in E. coli XL1-blue; not shown: The 15-residue scFv peptide linker (positions 116-130 of the scFv numbering) and the M13 phage display partner) VH: QVELVQSGTEVKKPGASVKVSCKASGYTFTSYHIHWVRQAPGQRLEWMGWIYPGDDSTKYSQKFQGRVTITRDTSASTAYMELSSLRSEDTAVYYCTRGDRFTYWGQGTLVTVSS VL: DIQMTQSPSTLSASVGDRVTITCRASSSVRYIAWYQQKPGKAPKLLIYSTSSLESGVPSRFSGSGSGTEFTLTISSLQPDDFATYYCLQWSSYPWTFGGGTKVEIK"
observed_property = "Ratio AB invention/chimeric 12G4"
measured_number = 0.9

[[record]]
binder = "6B_14 (mutated huLFB112 phage-scFv clone) (scFv, V domains shown, scFv on M13 phage, tested as culture supernatant; Q39E: TAG codon suppressed, translated to E in E. coli XL1-blue; not shown: The 15-residue scFv peptide linker (positions 116-130 of the scFv numbering) and the M13 phage display partner) VH: QVQLVQSGAEVKKPGASVKVSCKASGYTFTGYHIHWVREAPGQRLEWMGWIYPGDDSTKYSQKFQGRVTITRDTSASTAYMELSSLRSEDTAVYYCTRGDRFAYWGQGTLVTVSS VL: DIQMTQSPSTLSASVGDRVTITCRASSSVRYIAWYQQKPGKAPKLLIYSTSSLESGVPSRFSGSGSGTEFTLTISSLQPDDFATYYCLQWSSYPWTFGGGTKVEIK"
observed_property = "Ratio AB invention/chimeric 12G4"
measured_number = 1.1


Data provenance: patent US20130136743A1
